Sourced from patent US20180071242A1

- experimental system: CYP1A2 (Homo sapiens, UniProt P05177)
- Sequence (P05177 whole entry): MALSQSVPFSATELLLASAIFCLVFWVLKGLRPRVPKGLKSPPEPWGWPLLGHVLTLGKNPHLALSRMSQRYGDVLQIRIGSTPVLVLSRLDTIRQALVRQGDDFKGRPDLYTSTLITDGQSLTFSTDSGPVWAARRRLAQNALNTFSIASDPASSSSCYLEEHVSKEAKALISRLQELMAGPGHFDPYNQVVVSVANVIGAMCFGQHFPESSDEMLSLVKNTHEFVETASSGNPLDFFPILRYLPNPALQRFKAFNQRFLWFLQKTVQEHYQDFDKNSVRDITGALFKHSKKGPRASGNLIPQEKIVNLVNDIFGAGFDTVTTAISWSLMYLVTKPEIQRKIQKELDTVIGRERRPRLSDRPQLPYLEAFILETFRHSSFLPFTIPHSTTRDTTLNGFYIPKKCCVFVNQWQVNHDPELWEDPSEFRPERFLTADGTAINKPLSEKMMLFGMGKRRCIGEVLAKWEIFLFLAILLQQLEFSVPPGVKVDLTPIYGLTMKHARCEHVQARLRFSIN
- assay name: CYP inhibition screening, recombinant enzyme (fluorescent-based) assay
- Protocol: Human recombinant CYP enzymes and fluorescence-based substrates were used to determine the IC50 values of S-(I) against CYP3A4, 2D6, 2C19, 2C9, and 1A2. CYP inhibition screening procedures were performed essentially according to the manufacturer's instructions (Gentest, BD Biosciences, Waltham, Mass.). Briefly, CYP enzyme inhibition was measured using human cDNA-expressed CYP3A4, 2D6, 2C19, 2C9, and 1A2 enzymes. Analogs of the model substrate coumarin were utilized for each isoenzyme. […]
quantity name: IC50

INSERT INTO measurements (smiles_repr, experimental_system, quantity_name, endpoint_value) VALUES
  ('C[C@](O)(COc1ccc(Cl)cc1)C(=O)Nc1ccc(C#N)c(C(F)(F)F)c1', 'CYP1A2 (Homo sapiens, UniProt P05177)', 'IC50', '> 20 µM'),
  ('C[C@](O)(COc1ccc(F)cc1)C(=O)Nc1ccc(C#N)c(C(F)(F)F)c1', 'CYP1A2 (Homo sapiens, UniProt P05177)', 'IC50', '> 20 µM'),
  ('C[C@](O)(COc1ccc(C#N)cc1)C(=O)Nc1ccc(C#N)c(Cl)c1', 'CYP1A2 (Homo sapiens, UniProt P05177)', 'IC50', '> 20 µM');

###

# IC50 listing for each entry below
- experimental system: UniProt:P11712
- Sequence (P11712 whole entry): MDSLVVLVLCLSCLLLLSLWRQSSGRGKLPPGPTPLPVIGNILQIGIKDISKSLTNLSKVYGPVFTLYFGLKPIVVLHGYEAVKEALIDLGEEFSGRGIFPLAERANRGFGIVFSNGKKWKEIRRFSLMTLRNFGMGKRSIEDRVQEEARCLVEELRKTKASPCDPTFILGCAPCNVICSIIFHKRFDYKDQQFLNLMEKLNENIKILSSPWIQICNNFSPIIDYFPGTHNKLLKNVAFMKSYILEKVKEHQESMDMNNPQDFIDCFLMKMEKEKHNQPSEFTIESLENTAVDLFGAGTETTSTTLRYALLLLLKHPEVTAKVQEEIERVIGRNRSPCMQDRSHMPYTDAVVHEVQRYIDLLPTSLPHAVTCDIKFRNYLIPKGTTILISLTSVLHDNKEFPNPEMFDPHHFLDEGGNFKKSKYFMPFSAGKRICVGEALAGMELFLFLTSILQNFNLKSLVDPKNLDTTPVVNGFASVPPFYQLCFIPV
- assay name: CYP inhibition screening, recombinant enzyme (fluorescent-based) assay
quantity name: IC50 (µM)

INSERT INTO assay_data (molecule, experimental_system, value_units, endpoint_value) VALUES
  ('C[C@](O)(COc1ccc(Cl)cc1)C(=O)Nc1ccc(C#N)c(C(F)(F)F)c1 [S-(II)]', 'UniProt:P11712', 'µM', 3.8),
  ('C[C@](O)(COc1ccc(F)cc1)C(=O)Nc1ccc(C#N)c(C(F)(F)F)c1 [S-(III)]', 'UniProt:P11712', 'µM', 1.3),
  ('C[C@](O)(COc1ccc(C#N)cc1)C(=O)Nc1ccc(C#N)c(Cl)c1 [S-(I)]', 'UniProt:P11712', 'µM', 5.1);

###

- assay name: Pharmacokinetics in dogs
- Format: in vivo
- experimental setup: dog, plasma, oral; beagle dogs, perorally; read-out: F%, absolute bioavailability
- Procedure: In order to determine the pharmacokinetics of the S-isomer of the compound of formula (I) [S-(I)], the compound was administered to beagle dogs perorally, and circulating plasma levels, terminal elimination half-life (t1/2), total body clearance (CL), terminal volume distribution (Vz) and absolute bioavailability (F %) (Table 4) were determined.
quantity name: bioavailability (%)

INSERT INTO assay_data (smiles_repr, quantity_name, value_units, endpoint_value) VALUES
  ('C[C@](O)(COc1ccc(C#N)cc1)C(=O)Nc1ccc(C#N)c(Cl)c1', 'bioavailability', '%', 96.2);
